test: soluble on expression in E. coli; label from the status in PepcDB or PDB records
attribute measured: soluble on expression in E. coli

seq: MKVGIDAGGTLIKIVQEQDNQRTFKTELTKNIDQVVEWLNQQQIEKLCLTGGNAGVIAENINIPAQIFVEFDAASQGLGILLKEQGHDLADYIFANVGTGTSLHYFDGQSQRRVGGIGTGGGMIQGLGYLLSQITDYKQLTDMAQHGDRNTIDLKVRHIYKDTEPPIPGDLTAANFGHVLHHLDADFTPSNKLAAVIGVVGEVVTTMAITVAREFKTENIVYIGSSFHNNALLRKVVEDYTVLRGCKPYYVENGAFSGAIGALYLEKLEHHHHHH
value observed: soluble
--
seq: GSQVQLVESGGGLVQAGGSLRLSCAASGYAYTYIYMGWFRQAPGKEREGVAAMDSGGGGTLYADSVKGRMTISRDKGKNTVYLQMDSMKPEDTATYYCAAGGYELRDRTYGQWGQGTQVTVSS
value observed: soluble
--
seq: MSIKFELIDVPIPQGTNVIIGQAHFIKTVEDLYEALVTSVPGVKFGIAFCEASGKRLVRHEANDEELRNLAIDLCKKIAAGHVFVIYIRNAWPINVLNAIKNVPEVVRIFAATANPLKVIVAEVEPERRGVVGVVDGHSPLGVETEKDREERKKFLREVVKYKL
value observed: soluble

---

assay: soluble on expression in E. coli; label from the status in PepcDB or PDB records

seq: GSLATCIGEKIEDFKVGNLLGKGSFAGVYRAESIHTGLEVAIKMIDKKAMYKAGMVQRVQNEVKIHCQLKHPSILELYNYFEDSNYVYLVLEMCHNGEMNRYLKNRVKPFSENEARHFMHQIITGMLYLHSHGILHRDLTLSNLLLTRNMNIKIADFGLATQLKMPHEKHYTLCGTPNYISPEIATRSAHGLESDVWSLGCMFYTLLIGRPPFDTDTVKNTLNKVVLADYEMPSFLSIEAKDLIHQLLRRNPADRLSLSSVLDHPFMSRNSSTKSKDLGTVEDSIDSGHATISTAITASSSTSISGSLFDKRRLLIGQPLPNKMTVFPKEG
soluble on expression in E. coli: soluble

seq: MAHHHHHHMRHCHMSFAYCFCPFSAHRSASSQGYTRLMRRLSGSTCLLTGVTRAGRWLPTTAPCLSLCSFFLTASRRKQSTSGIGGDVRDIEETHPDFQPRLVSADLAEDEIAMVKKDIDDTIKSEDVVTFIKGLPEAPMCAYSKRMIDVLEALGLEYTSFDVLAHPVVRSYVKEVSEWPTIPQLFIKAEFVGGLDIVTKMLESGDLKKMLRDKGITCRDL
soluble on expression in E. coli: not soluble

seq: MSLARNLKADKTKTIGVIVRDITGFDTSRTIRGVDDFCKGCDYNALIYNTDFDPETEAKSLEALYQMRVDGIIIASSGQNNTLISEYIDKGMPIVHFQLEHDGSEKNLILSDYRQAAFDATEYLIKLGHKRICFMTQDFKNVKSRNERYSGYVAALKKYDIVQDPALIQYWQRETGFDHSPKSVLESAAAPTAFFTQHLAITTELLTHLNQENITIPDDVSLIGFDDIPMAEFFKVPVTVIKQEPYIIGKEAAKLLLEKVNDKNRHSQKIMISCSITERQSCTEGHHHHHH
soluble on expression in E. coli: soluble

seq: MSPEKYLQDWQTSQTIAESISPLIGKLYRQKGIEVVLFGKTLINATTIDILKTHRVARRYTGSPLSLEHTMPIIQALCEMSISSCRVDVGQLATKYWNEHEDTAALNDFLQTALQGARDADSS
soluble on expression in E. coli: not soluble

seq: MGSDKIHHHHHHMDSELRKRFNPDGSLLRRQQLRMLELLEVIDVICRKHQIPYWLSSGTLIGAARHKGFIPWDDDLDIEMLRSDYLRLLKVLPQELPDNLALQTNETDPNYIFIYGKLRDKDSHLEETNSYDRIFHYTGIYIDIFPLEKIPYCLAWIGGHMQGQIYNQLNNKNIKESTLYKRIRRIYHFNTRIGFPILRFIAKLFPGKELRHSFGTAYFKPRYTDDIFPLTEMEFEGKMFPVPRQTDAVLRKIYGDYMQLPDLENIHPHYNKLEFYK
soluble on expression in E. coli: not soluble

seq: TGKFKWDLGGNISFVKNKLLSLIEGSEMYVVPSSGSNLLGGSMHALINGEPISTFYMLKMEGIYQRDDEVPAKLYAKGVRAGDVRYFDYNEDGDITDADRVNVGKAIPDFYGGITSNFSYKGFDLSLFGQFSVGGKVMAAWRGVNGSEGTDHLGLALSNVKVGDRGESVEQFFNISKEVANGYWRGEGTSNSIPRPVRIGVHTGYDYDYNVQTSTRYLEDASYFKLKTVTLGYTLPESITKKIHVNSLRFYVSADNLLAFTKYSGYDPETSFSGSPGDSNYGVDFGLQPVLRTFIFGLNLNF
soluble on expression in E. coli: not soluble

seq: KLDKAYLNNDADKITYMPTWRPWEESEIINGNIKKTTYYKSILDVIKAFEKENMLNRLQIAAHNKFSQYMKNNFDKYQNIFIEDPTDTLTNSIIYITDISSIILDAAYRGAYPIFYWKEFDYIIEKHGGTSPVNPENAPGDVVYSEQDLVNIVKYIIRNDYKIPSRIKENYKKLNEFNDNQNTQRVVDILIEDNII
soluble on expression in E. coli: not soluble

seq: MMTLIRITSADDSRLNRLIPLYEESFPESERRKIGQLKRMIENHAPMYFNAIECDGELSGMFVYWDMGDFYYLEHLAVFPEMRNKKIGQQVLDYVAEHLKGVRLLEVEPTEDEMTTRRVNYYRRNGYEVLDKTYVQPSYHALEDACPLWIMGSEDSPRLAEQVERIKEEVYRQQVG
soluble on expression in E. coli: not soluble

seq: MAHHHHHHMKGLHIRPMNDSRLCERIKVLDDYCFPVKYTESYYNDYVRNSFHEFNQLAFYHDILVGSITCRLEKTATDGEHVLYIMTIGVLEAYRHLRIGSRLLQTVLSAVHNDTRNRIVAVTLHVQVGSPALKLYRQFNFEEVQLVENYYTDLDECNAILLRRVVPQPHFEHHKKFK
soluble on expression in E. coli: not soluble

seq: MKRVAAVIEYDGSNFFGYQGQPDVRTVQGVIEDALERIFKQRIYTQAAGRTDTGVHANGQLIAFNCPNDRMTTEDIRNAMNANLPDDVYVKEVFEVPVNFHPRFDVTKRIYHYFILTSRQKNVFLRKYVWWFPYELDLDAMRKAVKYLEGTHDFTSFKTGSDERDPVRTIYRIRILRLKNDLVLIRVEGRSFLRRMVRNIVAALVKVGLKQWEPEKMKEVLEARDRSAAAGTAPAHGLYFYKVLF
soluble on expression in E. coli: soluble

seq: EIGLLLAILLFMKRVTENTRITVATGRLDLTQTGEIAHHDEVLDIPKGVEVYEIEGPFFFGIANRFEEIMNTLGDHPDVRIIRMRHVPFMDSTGMHNLENLIKMSRKEGVSIVLSGVRKDVHEELATAGIVELLGEENVCADIQAALRQAQAIAQGA
soluble on expression in E. coli: not soluble

seq: MGQRKYGGPPPGWDSTPPERGCEIFIGKLPRDLFEDELIPLCEKIGKIYEMRLMMDFNGNNRGYAFVTFSNKQEAKNAIKQLNNYEIRTGRLLGVCASVDNCRLFVGGIPKTKKREEILSEMKKVTEGVVDVIVYPSAADKTKNRGFAFVEYESHRAAAMARRRLLPGRIQLWGHPIAVDWAEPEVEVDEDTMSSVKILYVRNLMLSTSEEMIEKEFNSIKPGAVERVKKIRDYAFVHFSNREDAVEAMKALNGKVLDGSPIEVTLAKPVDKDSYVRYTRGTGGRNTMLQGEYTYPLSHVYDTTTTYLGAPVFYTPQAYAAIPSLHFPATKGHLSNRALIRTPSVRGNTS
soluble on expression in E. coli: soluble

---

assay: soluble on expression in E. coli; label from the status in PepcDB or PDB records
attribute measured: soluble on expression in E. coli

seq: GGSGWNADNVDPSQCIKQSGVQYTYNSGVSVCMQGLNEGKVRGVSVSGVFYYNDGTTSNFKGVVTPSTPVNTNQDINKTNKVGVQKYRALTEWVGSRSHHHHHH
attribute measured: soluble on expression in E. coli
value observed: soluble

seq: AFSSTTTLTPSNVASREFIDTRAPNPEICVQYGASAMVMDARLFVTLNPFNVYVAQPNIRPGCVLRQNNWAILENKKLVTSDQVRECKNRLNTFGFTGNLDSEKPDIRCIYQNESAQNFFLSQPGAVGPSQDTERF
attribute measured: soluble on expression in E. coli
value observed: not soluble

seq: MANELTWHDVLAEEKQQPYFLNTLQTVASERQSGVTIYPPQKDVFNAFRFTELGDVKVVILGQDPYHGPGQAHGLAFSVRPGIAIPPSLLNMYKELENTIPGFTRPNHGYLESWARQGVLLLNTVLTVRAGQAHSHASLGWETFTDKVISLINQHREGVVFLLWGSHAQKKGAIIDKQRHHVLKAPQPSPLSAHRGFFGCNHFVLANQWLEQHGETPIDWMPVLPAESE
attribute measured: soluble on expression in E. coli
value observed: soluble

seq: MGSDKIHHHHHHMDIRVLRYFVVIAQEQNISRAATLLNVSQPALSRQIADLEDELGTKLFTRAHRHIQLTQEGHYLLERALQIIGLVDKTTYNLQKQDVVSGTLDIGAGESVGIMPVMEAAQQIMRQYPDVRVNLRSADAEPILADLDAGILEFGIIMGNRPLNNYNTLVLPAKNHWCAIMRADEPLAQQKEIRPIDLVGRPLITSRQAYKHGLFQKWSNTLYDQLNFVGTFNLAFNGSLLVKTGAAIALLYDQLVDVSPTSGLVARPLNPDMSEANTLIWSKNRNLPNLNRLFLDTLQKNLAQQGGSDA
attribute measured: soluble on expression in E. coli
value observed: not soluble

seq: MGSDKIHHHHHHMPLSIITNTFAGNPLDRDSERRGDEAFLAEKLADPESLAVALWNGKPLVEDILGEDGKPTGVQIAYLRADMAQDLAGGSEKLLYMGLWKDIAVFAVDIEGAADPAEGPLQGLGRFEELRGAAASMPPADAGILATAKSMFEWRRRHRWCSACGQKTEVSDGGWKRVCPSCEAEHFPRTDPVAIMLAIHDGKCLLGRQAMWPQGMFSALAGFIEPGETIEEACARELQEEAGLKATAVRYHSSQPWPWPSSLMMGLIAEVDSDEAAPDQTELEEVRWFTREEALQLIRGELDGLFAPPPLAIAHQLIKAWAEEA
attribute measured: soluble on expression in E. coli
value observed: not soluble

seq: MAHHHHHHMRARPSWHLRLNKNRDDVTTFRGFPATARSCCSIGSISGLQALPHPMELSSVEYRSEGWTHAICRLYRTLYKLHAKQLHPIQREFGDRFVQTEFQRHIDASEKHARIFYQSWYSYAVQLLVGQTSRDMTAEEQQQLTPEQKETMRRLRSHVLQAKQSEPGFHL
attribute measured: soluble on expression in E. coli
value observed: not soluble

seq: MGSDKIHHHHHHMLPLEGLTVIAVEQAVAAPYCSSRLADAGAHVIKIERPEGDFARGYDAAAKGQSSYFVWLNRGKESAVVDLATKEGRAELEKLIASADVLLQNLKPGSMDKLGFARERLRKDYPKLIICTISGYGDEGPYAHRKAYDLLIQAESGLASITGGPESASRVGMSIVDVATGATAHAAILEALIGRGRTGQGADIRISMFDVMADWLTVPLLNAEAGNPPKRLGLAHPSIAPYGVFTSKDGKDILISIQSEREWKKLCSDVLRQPDLPNDPRLCNGVERVKNRAYTDKIVADIFGSLTRDDLLEHLAAADIAFAEVNAMEDLSHHPHLRRIEVDTPNGKVSYPAPAAIFVGDERRYGAVPGIGDKRK
attribute measured: soluble on expression in E. coli
value observed: not soluble
